Test system: Schistosoma mansoni
test: Antischistosomal activity against NMRI mouse juvenile Schistosoma mansoni infection model assessed as reduction of total worm burden at 200 mg/kg, po after 28 days
Format: functional
Set-up: scale not given: the % may be the effect or the level left
Use label 1 when the recorded Activity is no lower than 80%; use label 0 when it is lower.

[
  {
    "molecule": "C1CCC2(CC1)COC1(OO2)C2CC3CC(C2)CC1C3 (centres undefined)",
    "study system": "Schistosoma mansoni",
    "group": "label 0"
  },
  {
    "molecule": "C1CCC2(CC1)COC1(O2)C2CC3CC(C2)CC1C3 (centres undefined)",
    "study system": "Schistosoma mansoni",
    "group": "label 0"
  },
  {
    "molecule": "C1CCC2(CC1)OCC1(O2)C2CC3CC(C2)CC1C3 (centres undefined)",
    "study system": "Schistosoma mansoni",
    "group": "label 0"
  },
  {
    "molecule": "C1CCC2(CC1)COC1(CCCCC1)OO2",
    "study system": "Schistosoma mansoni",
    "group": "label 0"
  },
  {
    "molecule": "NC[C@H]1CC[C@]2(CC1)OOC1(O2)C2CC3CC(C2)CC1C3 (some centres undefined)",
    "study system": "Schistosoma mansoni",
    "group": "label 1"
  }
]

Record `Oc1ccc([C@H]2CC[C@]3(CC2)OO[C@]2(O3)C3CC4CC(C3)CC2C4)cc1` ; criterion: Activity no lower than 80%. Met?
label 1

Reported Activity reaches at least 80% for `C1CCC2(CC1)OOC1(CCCCC1)O2` ?
label 0
